# studyTarget: Organic anion transporter 3 (Homo sapiens, UniProt Q8TCC7)
# Sequence (Q8TCC7 whole entry): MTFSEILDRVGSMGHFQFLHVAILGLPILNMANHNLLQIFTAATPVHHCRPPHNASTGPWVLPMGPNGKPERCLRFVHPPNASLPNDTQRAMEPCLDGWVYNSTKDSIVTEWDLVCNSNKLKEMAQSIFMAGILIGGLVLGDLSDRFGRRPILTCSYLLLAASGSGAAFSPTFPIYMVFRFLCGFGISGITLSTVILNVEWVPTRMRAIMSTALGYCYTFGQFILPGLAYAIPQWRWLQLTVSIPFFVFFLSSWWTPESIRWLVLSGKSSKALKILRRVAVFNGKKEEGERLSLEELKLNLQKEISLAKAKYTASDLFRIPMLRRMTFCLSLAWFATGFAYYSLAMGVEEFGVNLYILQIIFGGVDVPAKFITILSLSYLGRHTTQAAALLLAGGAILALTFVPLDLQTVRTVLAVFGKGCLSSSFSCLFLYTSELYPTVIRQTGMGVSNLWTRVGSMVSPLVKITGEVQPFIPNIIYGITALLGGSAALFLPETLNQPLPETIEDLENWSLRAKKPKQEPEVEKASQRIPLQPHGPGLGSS
# experiment: TP_TRANSPORTER: inhibition of MTX uptake in OAT3-expressing S2 cells
reportedProperty: pKi
Notebook: values listed as pKi are -log10 of the concentration (mol/L).

// solved cases for pKi follow
[ask] Please look at CCCCC1C(=O)N(c2ccccc2)N(c2ccccc2)C1=O [PHENYLBUTAZONE] and tell me its recorded pKi on Organic anion transporter 3 (Homo sapiens, UniProt Q8TCC7).
[reply] 4.46

[ask] Please look at O=C(O)c1ccccc1O [SALICYLIC ACID] and tell me its recorded pKi on Organic anion transporter 3 (Homo sapiens, UniProt Q8TCC7).
[reply] 2.99

[ask] Please look at CN1C(C(=O)Nc2ccccn2)=C(O)c2ccccc2S1(=O)=O [PIROXICAM] and tell me its recorded pKi on Organic anion transporter 3 (Homo sapiens, UniProt Q8TCC7).
[reply] 2.92

[ask] Please look at CC1(C)S[C@@H]2[C@H](NC(=O)Cc3ccccc3)C(=O)N2[C@H]1C(=O)O [PENICILLIN G] and tell me its recorded pKi on Organic anion transporter 3 (Homo sapiens, UniProt Q8TCC7).
[reply] 4.01

[ask] Please look at CC(C(=O)O)c1cccc(C(=O)c2ccccc2)c1 (stereo unspecified) [KETOPROFEN] and tell me its recorded pKi on Organic anion transporter 3 (Homo sapiens, UniProt Q8TCC7).
[reply] 2.94

Here is another compound to look at.
[ask] Please look at COc1ccc2c(c1)c(CC(=O)O)c(C)n2C(=O)c1ccc(Cl)cc1 [INDOMETHACIN] and tell me its recorded pKi on Organic anion transporter 3 (Homo sapiens, UniProt Q8TCC7).
[reply] 5.23

====

# studyTarget: OAT4 (Solute carrier family 22 member 11) (Homo sapiens, UniProt Q9NSA0)
# Sequence (Q9NSA0 whole entry): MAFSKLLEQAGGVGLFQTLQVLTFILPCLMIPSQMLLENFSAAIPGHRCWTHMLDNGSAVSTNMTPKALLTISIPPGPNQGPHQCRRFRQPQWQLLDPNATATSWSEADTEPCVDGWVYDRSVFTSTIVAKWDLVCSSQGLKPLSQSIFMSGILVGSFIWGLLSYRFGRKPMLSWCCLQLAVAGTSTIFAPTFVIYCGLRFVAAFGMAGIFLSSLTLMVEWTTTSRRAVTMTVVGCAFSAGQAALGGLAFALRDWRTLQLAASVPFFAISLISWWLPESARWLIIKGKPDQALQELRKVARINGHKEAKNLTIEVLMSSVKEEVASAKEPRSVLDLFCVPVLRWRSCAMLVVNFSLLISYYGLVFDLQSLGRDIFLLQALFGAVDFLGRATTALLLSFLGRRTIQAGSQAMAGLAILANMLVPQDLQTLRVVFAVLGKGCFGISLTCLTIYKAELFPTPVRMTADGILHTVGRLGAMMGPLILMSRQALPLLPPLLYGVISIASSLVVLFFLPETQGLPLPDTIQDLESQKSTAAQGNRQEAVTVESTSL
# experiment: TP_TRANSPORTER: inhibition of MTX uptake (MTX: 1 uM, Indomethacin: 500 uM) in OAT4-expressing S2 cells
# Format: functional, cell-based
# Parameters: scale not given: the % may be the effect or the level left
# studyConditions: probe MTX, read-out: Activity
reportedProperty: activity at 500 µM (%)
Reply numerically in %, unit not repeated.

[ask] Fill in reported activity at 500 µM for this entry: COc1ccc2c(c1)c(CC(=O)O)c(C)n2C(=O)c1ccc(Cl)cc1 [INDOMETHACIN]
[reply] 60.9

====

# studyTarget: OAT4 (Solute carrier family 22 member 11) (Homo sapiens)
# experiment: TP_TRANSPORTER: inhibition of MTX uptake (MTX: 1 uM, Ibuprofen: 1000 uM) in OAT4-expressing S2 cells
# Type: functional, cell-based
# Design: scale not given: the % may be the effect or the level left
# studyConditions: probe MTX, read-out: Activity
reportedProperty: activity at 1000 µM
Express your answer as a number followed by its unit.

[ask] Fill in reported activity at 1000 µM for this entry: CC(C)Cc1ccc(C(C)C(=O)O)cc1 (stereo unspecified) [IBUPROFEN]
[reply] 67.8%
